Hey, just so you know, these numbers are from paper PMC10084949.

Test System: ScSte2 + ScBar1 (Saccharomyces cerevisiae)
Construct: we cloned codon-optimized open reading frames (ORFs) of all 5 proteases and GPCRs; pTDH3-ScSTE2, two pCCW12-ScBAR1 cassettes, genome-integrated)
Sequence (D6VTK4 whole entry): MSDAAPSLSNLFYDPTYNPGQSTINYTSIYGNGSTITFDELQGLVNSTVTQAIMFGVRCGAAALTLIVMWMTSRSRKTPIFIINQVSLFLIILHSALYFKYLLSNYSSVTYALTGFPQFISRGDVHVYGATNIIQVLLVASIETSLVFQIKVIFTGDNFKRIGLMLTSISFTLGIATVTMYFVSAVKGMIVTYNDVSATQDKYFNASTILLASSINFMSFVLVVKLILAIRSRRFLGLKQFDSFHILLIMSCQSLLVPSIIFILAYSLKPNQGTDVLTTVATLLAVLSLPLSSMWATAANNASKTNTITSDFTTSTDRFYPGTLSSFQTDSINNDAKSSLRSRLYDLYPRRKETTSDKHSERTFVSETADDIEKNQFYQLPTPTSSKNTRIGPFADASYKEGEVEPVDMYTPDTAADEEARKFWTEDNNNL
Method Notes: Dose-response activation of ScSte2 biosensor strain secreting ScBar1 (two copies, yBB01), fluorescent readout
Applied Conditions: SEM
Quantity: EC50 (nM)
Your answer should be a plain number; it is taken to be in nM.

Query string: Fill in reported EC50 for this entry: "CSCC[C@H](NC(=O)[C@@H]1CCCN1C(=O)[C@H](CCC(N)=O)NC(=O)CNC(=O)[C@@H]1CCCN1C(=O)[C@H](CCCCN)NC(=O)[C@H](CC(C)C)NC(=O)[C@H](C)NC(=O)[C@H](CC(C)C)NC(=O)[C@H](Cc1c[nH]c2ccccc12)NC(=O)[C@H](Cc1c[nH]cn1)NC(=O)[C@@H](N)Cc1c[nH]c2ccccc12)C(=O)N[C@@H](Cc1ccc(O)cc1)C(=O)O"
Result string: 501
